Where these numbers come from: ChEMBL document CHEMBL1157194

experiment: Binding affinity to adrenergic alpha2 receptor
pKi: −log10 of the molar value.
Assay Metric: pKi

CC(C)Oc1ccccc1N1CCN(Cc2cccc(C(=O)N3CCCCC3)c2)CC1 [MAZAPERTINE] :: 7.77

---

target: D(4) dopamine receptor (Homo sapiens)
Sequence (P21917 whole entry): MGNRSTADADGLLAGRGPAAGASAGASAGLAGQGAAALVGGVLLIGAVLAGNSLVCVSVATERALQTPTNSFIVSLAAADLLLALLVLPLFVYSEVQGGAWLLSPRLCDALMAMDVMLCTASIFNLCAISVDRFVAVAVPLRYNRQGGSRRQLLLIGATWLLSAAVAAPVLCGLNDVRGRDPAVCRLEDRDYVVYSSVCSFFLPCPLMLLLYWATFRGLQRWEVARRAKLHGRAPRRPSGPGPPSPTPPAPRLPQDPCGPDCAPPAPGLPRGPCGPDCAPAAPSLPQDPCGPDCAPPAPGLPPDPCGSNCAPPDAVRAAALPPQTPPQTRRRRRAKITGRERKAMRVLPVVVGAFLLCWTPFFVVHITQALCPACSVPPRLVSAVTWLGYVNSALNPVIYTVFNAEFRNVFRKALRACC
pKi: −log10 of the molar value.
Assay Metric: pKi

Nc1nc(-c2ccc(F)cc2)c([C@@H]2CCN(CCCC(=O)c3ccc(F)cc3)C2)s1 :: 9.26

---

test: Binding affinity to 5HT2
pKi: −log10 of the molar value.
Assay Metric: pKi

CC(C)Oc1ccccc1N1CCN(Cc2cccc(C(=O)N3CCCCC3)c2)CC1 [MAZAPERTINE] :: 6.78
